# methodDescription: The therapeutic index of the compound is evaluated.
# setupConditions: read-out: IC50/EC50
readoutType: selectivity ratio

compoundStructure	valueReported
COC(=O)c1cc(C(=CCCBr)c2cc(Cl)c(OC)c(C(=O)OC)c2)cc(Cl)c1OC	2.2

###

# System: CCRF-CEM
# methodDescription: The compound was evaluated for prevention of the cytopathic effect of HIV-1 for cytopathicity of HIV-1RF in CEM-SS cells.
# Assay type: functional, cell-based
# setupConditions: Homo sapiens
pEC50: −log10 of the molar value.
The entries below come with measured pEC50 values attached.

compoundStructure	qualifyingSign	pEC50
CCCCCC=C(c1cc(Cl)c(O)c(C(=O)O)c1)c1cc(Cl)c(O)c(C(=O)O)c1	<	4.04
CCCCCCCCCC=C(c1cc(Br)c(OC)c(C(=O)OC)c1)c1cc(Br)c(OC)c(C(=O)OC)c1	<	4.52
COC(=O)c1cc(C(=CCCBr)c2cc(Cl)c(OC)c(C(=O)OC)c2)cc(Cl)c1OC	=	5.10
CCCCCC=C(c1cc(Cl)c(OC)c(C(=O)OC)c1)c1cc(Cl)c(OC)c(C(=O)OC)c1	=	4.80
CCCCCCCCCCCCCCCC=C(c1cc(Br)c(OC)c(C(=O)OC)c1)c1cc(Br)c(OC)c(C(=O)OC)c1	<	4.55

###

# Tested on: CCRF-CEM
# methodDescription: 50% cytotoxic concentration for mock-infected CEM cells
# Format: functional, cell-based
# setupConditions: Homo sapiens

compoundStructure	qualifyingSign	IC50, µM
CCCCCC=C(c1cc(Cl)c(OC)c(C(=O)OC)c1)c1cc(Cl)c(OC)c(C(=O)OC)c1	>	29.1
CCCCCC=C(c1cc(Cl)c(OC)c(C(N)=O)c1)c1cc(Cl)c(OC)c(C(N)=O)c1	=	31
CCCCCC=C(c1cc(Cl)c(OC)c(C(=O)O)c1)c1cc(Cl)c(OC)c(C(=O)O)c1	=	84
CCCCCC=C(c1cc(Cl)c(O)c(C(=O)O)c1)c1cc(Cl)c(O)c(C(=O)O)c1	>	91.5
CCCCCC=C(c1cc(Cl)c(OC)c(C(=O)N(C)C)c1)c1cc(Cl)c(OC)c(C(=O)N(C)C)c1	=	21
CCCCCC=C(c1cc(Cl)c(OC)c(C(=O)NC)c1)c1cc(Cl)c(OC)c(C(=O)NC)c1	=	21

// provenance: ChEMBL document CHEMBL1129271
